# targetOfAssay: Pregnane X Receptor (PXR; SXR) (Homo sapiens, UniProt O75469)
# Sequence (O75469 whole entry, species assumed): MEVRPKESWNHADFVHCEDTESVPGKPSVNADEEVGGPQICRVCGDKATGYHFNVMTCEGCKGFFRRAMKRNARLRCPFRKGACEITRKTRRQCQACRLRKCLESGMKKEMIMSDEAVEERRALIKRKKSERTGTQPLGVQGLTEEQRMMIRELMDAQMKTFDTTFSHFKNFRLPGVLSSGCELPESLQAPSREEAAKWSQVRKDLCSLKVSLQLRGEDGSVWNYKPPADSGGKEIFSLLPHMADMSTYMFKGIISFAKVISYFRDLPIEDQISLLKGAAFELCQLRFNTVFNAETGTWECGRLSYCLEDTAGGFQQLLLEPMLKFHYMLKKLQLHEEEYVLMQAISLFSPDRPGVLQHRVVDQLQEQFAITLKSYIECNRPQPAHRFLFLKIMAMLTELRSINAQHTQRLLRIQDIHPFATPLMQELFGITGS
# assayProcedure: Pregnane X Receptor
# Format: binding
valueType: pIC50
Keep it numeric: pIC50 is minus log10 of the concentration in mol/L.

Recorded pIC50 (compound O=C(Nc1nccs1)C(c1cc(F)ccc1O)N1Cc2ccccc2C1=O (stereo not shown) ): 5.15

###

valueType: IC50

For the compound O=C(Nc1nccs1)C(c1cc(F)ccc1O)N1Cc2ccccc2C1=O (stereo not shown) , the measured IC50 on Dopamine Transporter (Homo sapiens) was > 30 µM

###

valueType: IC50

For the compound O=C(Nc1nccs1)C(c1cc(F)ccc1O)N1Cc2ccccc2C1=O (stereo not shown) , the measured IC50 on Adenosine 2A receptor (Homo sapiens) was > 30 µM

Hello, the source for this data is paper PMC4929832, in case you need it.
